Assay: Solubility in PBS
Assay type: physicochemical
Conditions: Solubility (uM)
Decision: Solubility >= 20 µM yields Satisfied, all other cases yield Not satisfied.

These solved cases illustrate the format of a correct answer.
- CC(=O)N1CCC[C@]12CC=CCCCC1(CCCC=CCOC(=O)N(C)CCC[C@@](C)(C(=O)N[C@@H](Cc3cccc(F)c3)C(=O)N[C@@H](Cc3csc4ccccc34)C(=O)N[C@@H](CCC(N)=O)C(N)=O)NC(=O)[C@H](C(C)C)NC(=O)[C@H](Cc3ccccc3)NC(=O)[C@H](C)NC(=O)[C@H](C)NC(=O)[C@H](Cc3c[nH]cn3)NC(=O)[C@H](CC(=O)O)NC1=O)NC(=O)[C@H](C)NC(=O)[C@H](CC(=O)O)NC2=O (stereo partly shown): Satisfied
- CC(=O)N1CCC[C@]12CC=CCCCC1(CCCC=CCCCOC(=O)N3CC[C@@](C(=O)N[C@@H](Cc4ccsc4)C(=O)N[C@@H](Cc4csc5ccccc45)C(=O)N[C@@H](Cc4c[nH]cn4)C(N)=O)(C3)NC(=O)[C@H](CCCNC(N)=O)NC(=O)[C@H](Cc3ccccc3)NC(=O)[C@H](C)NC(=O)[C@H](C)NC(=O)[C@H](CC(=O)O)NC(=O)[C@H](CC(=O)O)NC1=O)NC(=O)[C@H](CC(C)(C)C)NC(=O)[C@H](CC(=O)O)NC2=O (stereo partly shown): Satisfied

Alright, here's another molecule for you.
Does CC(=O)N1CCC[C@]12CC=CCCCC1(CCCC=CCCCCCC[C@@](C)(C(=O)N[C@@H](Cc3ccccc3)C(=O)N[C@@H](Cc3csc4ccccc34)C(=O)N[C@@H](CCC(N)=O)C(N)=O)NC(=O)[C@H](C(C)C)NC(=O)[C@H](Cc3cccc(C(F)(F)F)c3)NC(=O)[C@H](C)NC(=O)[C@H](C)NC(=O)[C@H](CC(=O)O)NC(=O)[C@H](CC(=O)O)NC1=O)NC(=O)[C@H](C)NC(=O)[C@H](CC(=O)O)NC2=O (stereo partly shown) have a reported Solubility of at least 20 µM? Satisfied

---

Reported IC50 values for a set of compounds
Biological target: beta-catenin/TCF4 engagement (Homo sapiens, UniProt P35222)
Construct: expressed in transfected cells; host or cells: HEK293
Sequence (P35222 whole entry): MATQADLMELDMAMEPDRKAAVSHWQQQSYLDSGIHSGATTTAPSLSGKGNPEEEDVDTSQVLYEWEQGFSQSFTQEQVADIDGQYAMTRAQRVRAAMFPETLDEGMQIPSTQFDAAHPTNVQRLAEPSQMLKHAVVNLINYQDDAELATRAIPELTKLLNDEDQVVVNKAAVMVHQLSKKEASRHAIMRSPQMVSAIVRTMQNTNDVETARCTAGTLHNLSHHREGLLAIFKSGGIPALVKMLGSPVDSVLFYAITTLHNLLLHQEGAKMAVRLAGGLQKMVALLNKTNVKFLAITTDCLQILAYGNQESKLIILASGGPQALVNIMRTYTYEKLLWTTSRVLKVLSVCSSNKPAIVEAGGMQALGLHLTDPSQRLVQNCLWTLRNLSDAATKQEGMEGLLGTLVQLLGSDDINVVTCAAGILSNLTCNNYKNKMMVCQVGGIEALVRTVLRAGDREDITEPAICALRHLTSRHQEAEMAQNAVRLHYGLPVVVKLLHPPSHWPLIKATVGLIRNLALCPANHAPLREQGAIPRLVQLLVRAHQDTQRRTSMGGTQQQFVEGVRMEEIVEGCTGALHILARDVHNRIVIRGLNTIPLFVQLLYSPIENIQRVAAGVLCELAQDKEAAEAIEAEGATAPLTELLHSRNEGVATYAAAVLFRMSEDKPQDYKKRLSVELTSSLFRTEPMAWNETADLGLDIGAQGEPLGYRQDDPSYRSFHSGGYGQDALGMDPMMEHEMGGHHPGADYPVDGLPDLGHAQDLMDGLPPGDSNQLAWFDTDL
Experiment: Nano-BRET target engagement assay (B-cat-Halo & TCF4-Luc in HEK293 cells)
Type: cell-based
Details: absolute IC50; read-out: NanoBRET Abs IC50

See these solved cases before continuing.
• CC(=O)N1CCC[C@]12CC=CCCCC1(CCCC=CCCCOC(=O)N3CC[C@@](C(=O)N[C@@H](Cc4ccccc4Cl)C(=O)N[C@@H](Cc4csc5ccccc45)C(=O)N[C@@H](CC(C)C)C(N)=O)(C3)NC(=O)[C@H](CC(C)C)NC(=O)[C@H](Cc3ccccc3)NC(=O)[C@H](C)NC(=O)[C@H](CCCCNC(C)C)NC(=O)[C@H](CC(=O)O)NC(=O)[C@H](CC(=O)O)NC1=O)NC(=O)[C@H](CC(C)(C)C)NC(=O)[C@H](CC(=O)O)NC2=O (stereo partly drawn) [I-1277] = > 20 µM
• CC(=O)N1CCC[C@]12CC=CCCCC1(CCCC=CCCCOC(=O)N3CC[C@@](C(=O)N[C@@H](Cc4ccccc4)C(=O)N[C@@H](Cc4csc5ccccc45)C(=O)N[C@@H](CCCCN)C(N)=O)(C3)NC(=O)[C@H](CC(C)C)NC(=O)[C@H](Cc3ccccc3)NC(=O)[C@H](C)NC(=O)[C@H](CCO)NC(=O)[C@H](CCC(N)=O)NC(=O)[C@H](CC(=O)O)NC1=O)NC(=O)[C@H](CC1CCCCC1)NC(=O)[C@H](CC(N)=O)NC2=O (stereo partly drawn) [I-2419] = > 20 µM

# next compound below
Determine its reported IC50: CC(=O)N1CCC[C@]12CC=CCCCC1(CCCC=CCCCOC(=O)N3CC[C@@](C(=O)N[C@@H](Cc4ccsc4)C(=O)N[C@@H](Cc4csc5ccccc45)C(=O)N[C@@H](CCC(N)=O)C(N)=O)(C3)NC(=O)[C@H](CC(C)(C)C)NC(=O)[C@H](Cc3ccccc3)NC(=O)[C@H](C)NC(=O)[C@H](C)NC(=O)[C@H](CN(CC(=O)O)CC(F)(F)F)NC(=O)[C@H](CC(=O)O)NC1=O)NC(=O)[C@H](CC(C)(C)C)NC(=O)[C@H](CC(=O)O)NC2=O (stereo partly drawn) [I-1773] 8.6 µM

---

Test: Solubility in PBS
Format: physicochemical
reported property: Solubility (µM)
All answers are understood in µM, so give the number only.

See these solved cases before continuing.
- CC(=O)N1CCC[C@]12CC=CCCCC1(CCCC=CCCCCCC[C@@](C)(C(=O)N[C@@H](Cc3ccccc3)C(=O)N[C@@H](Cc3csc4ccccc34)C(=O)N[C@@H](CCC(N)=O)C(N)=O)NC(=O)[C@H](C)NC(=O)[C@H](Cc3c[nH]cn3)NC(=O)[C@H](C)NC(=O)[C@H](C)NC(=O)[C@H](CC(=O)O)NC(=O)[C@H](CC(=O)O)NC1=O)NC(=O)[C@H](C)NC(=O)[C@H](CC(=O)O)NC2=O (stereo partly shown) [I-364]: 26
- CC(=O)N1CCC[C@]12CC=CCCCC1(CCCC=CCCCCCC[C@@](C)(C(=O)N[C@@H](Cc3ccccc3Cl)C(=O)N[C@@H](Cc3csc4ccccc34)C(=O)N[C@@H](C(N)=O)[C@H](C)O)NC(=O)[C@H](CC(C)C)NC(=O)[C@H](Cc3ccccc3)NC(=O)[C@H](C)NC(=O)[C@H](C)NC(=O)[C@H](CCC(=O)O)NC(=O)[C@H](CC(=O)O)NC1=O)NC(=O)[C@H](CC(C)(C)C)NC(=O)[C@H](CC(=O)O)NC2=O (stereo partly shown): 10

Determine its reported Solubility: CC(=O)N1CCC[C@]12CC=CCCCC1(CCCC=CCCCOC(=O)N3CC[C@@](C(=O)N[C@@H](Cc4ccccc4Cl)C(=O)N[C@@H](Cc4csc5ccccc45)C(=O)N[C@@H](CCC(N)=O)C(=O)NCCCCCCN)(C3)NC(=O)[C@H](Cc3ccccc3)NC(=O)[C@H](Cc3ccccc3)NC(=O)[C@H](C)NC(=O)[C@H](C)NC(=O)[C@H](CN(CC(=O)O)CC(F)(F)F)NC(=O)[C@H](CC(=O)O)NC1=O)NC(=O)[C@H](CC(C)(C)C)NC(=O)[C@H](CC(=O)O)NC2=O (stereo partly shown) 10

Determine its reported Solubility: CC(=O)N1CCC[C@]12CC=CCCCC1(CCCC=CCCCOC(=O)N3CC[C@@](C(=O)N[C@@H](Cc4ccsc4)C(=O)N[C@@H](Cc4csc5ccccc45)C(=O)N[C@@H](CCC(N)=O)C(N)=O)(C3)NC(=O)[C@H](CC(N)=O)NC(=O)[C@H](Cc3ccccc3)NC(=O)[C@H](C)NC(=O)[C@H](C)NC(=O)[C@H](CC(=O)O)NC(=O)[C@H](CCN)NC1=O)NC(=O)[C@H](CC(C)(C)C)NC(=O)[C@H](CC(=O)O)NC2=O (stereo partly shown) 10

Determine its reported Solubility: CC(=O)N1CCC[C@]12CC=CCCCC1(CCCC=CCCCCCC[C@@](C)(C(=O)N[C@@H](Cc3cccc(F)c3)C(=O)N[C@@H](Cc3c[nH]c4ccccc34)C(=O)N[C@@H](CCC(N)=O)C(N)=O)NC(=O)[C@H](CCC(N)=O)NC(=O)[C@H](Cc3cccs3)NC(=O)[C@H](C)NC(=O)[C@H](C)NC(=O)[C@H](CCC(=O)O)NC(=O)[C@H](CC(=O)O)NC1=O)NC(=O)[C@H](C)NC(=O)[C@H](CC(=O)O)NC2=O (stereo partly shown) 50

---

Biological target: beta-catenin/TCF4 engagement (Homo sapiens, UniProt P35222)
Construct: expressed in transfected cells; host or cells: HEK293
Experiment: Nano-BRET target engagement assay (B-cat-Halo & TCF4-Luc in HEK293 cells)
Assay type: cell-based
Conditions: absolute IC50; read-out: NanoBRET Abs IC50
Reported pIC50 values for a set of compounds
Please keep in mind that pIC50 is minus log10 of the molar concentration; only the number is needed.

* CC(=O)N1CCC[C@]12CC=CCCCC1(CCCC=CCCCOC(=O)N3CC[C@@](C(=O)N[C@@H](Cc4ccccc4Cl)C(=O)N[C@@H](Cc4csc5ccccc45)C(=O)N[C@@H](CO)C(N)=O)(C3)NC(=O)[C@H]([C@@H](C)O)NC(=O)[C@H](Cc3ccccc3)NC(=O)[C@H](C)NC(=O)[C@H](CC(C)C)NC(=O)[C@H](CC(=O)O)NC(=O)[C@H](CC(=O)O)NC1=O)NC(=O)[C@H](CC1CCCCC1)NC(=O)[C@H](CC(=O)O)NC2=O (stereo partly drawn) | 4.67

# next compound below
Determine its reported pIC50: CC(=O)N1CCC[C@]12CC=CCCCC1(CCCC=CCCCCCC[C@@](C)(C(=O)N[C@@H](Cc3ccccc3)C(=O)N[C@@H](Cc3csc4ccccc34)C(=O)N[C@@H](Cc3c[nH]cn3)C(N)=O)NC(=O)[C@H](CCC(N)=O)NC(=O)[C@H](Cc3ccccc3)NC(=O)[C@H](C)NC(=O)[C@H](C)NC(=O)[C@H](CCC(=O)O)NC(=O)[C@H](CC(=O)O)NC1=O)NC(=O)[C@H](CC(C)C)NC(=O)[C@H](CC(=O)O)NC2=O (stereo partly drawn) 5.05

// data source = patent US20240116985A1
